Experimental System: T1, huCTLA-4 ECD (his-tag) (human, UniProt P16410 37-162)
T1 construct: also called HX1 hCTLA4 his; HX1 huCTLA4 his; not shown: his-tag
T1 sequence: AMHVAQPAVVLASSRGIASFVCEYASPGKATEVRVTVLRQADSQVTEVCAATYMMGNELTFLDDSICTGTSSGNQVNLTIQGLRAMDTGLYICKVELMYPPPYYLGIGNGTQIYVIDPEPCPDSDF
Procedure Summary: ELISA, coated huCTLA-4 his
Measured Property: binding result

huJS007-48 (antibody, human IgG1, kappa, V domains shown) VH: QVQLQESGPGLVKPSQTLSLTCTVSAYSITSGYYWNWIRQHPGKGLEWIGYIGYDGSNNYNPSLKSRVTISRDTSKNQFSLKLSSVTAADTAVYYCARDYYSGYFDSWGQGTTLTVSS VL: DIQMTQSPSSLSASVGDRVTITCRASQNVGTYVAWYQQKPGKAPKPLIYSTSYRYSGVPSRFSGSGSGTDFTLTISSLQPEDFATYFCHQYDTYPLTFGAGTKLELKR :: binds
HuJS007-74 (antibody, V domains shown, 1A5 VH5 + 4B7VL2; constant regions not specified) VH: QVQLQESGPGLVKPSQTLSLTCAVSGYSISSGYYWNWIRQPPGKGLEWIGYIGYDGSNYYNPSLKSRVTMSVDTSKNQFSLKLSSVTAVDTAVYYCARNYYSGYFDSWGQGTTVTVSS VL: DIQMTQSPSSLSASVGDRVTITCRASQNVGTYVAWYQQKPGKVPKPLIYSTSYRYSGVPSRFSGSGSGTDFTLTISSLQPEDVATYFCHQYDTYPLTFGAGTKLELK :: binds
HuJS007-75 (antibody, V domains shown, 1A5 VH5 + 4B7VL3; constant regions not specified) VH: QVQLQESGPGLVKPSQTLSLTCAVSGYSISSGYYWNWIRQPPGKGLEWIGYIGYDGSNYYNPSLKSRVTMSVDTSKNQFSLKLSSVTAVDTAVYYCARNYYSGYFDSWGQGTTVTVSS VL: DIQMTQSPSSLSASVGDRVTITCRASQNVGTYVAWYQQKPGKAPKPLIYSTSYRYSGVPSRFSGSGSGTDFTLTISSLQPEDFATYFCHQYDTYPLTFGAGTKLELK :: binds
